Test system: compound-treated mice
assay.explanation: Neuropharmacological assay (SmartCube): behavioral activity signature and minimal effective dose
Type: in vivo
settings: i.p. 15 min before test, most efficacious dose(s)
Counter-ions that a name gives are not always drawn.
measure.name: AG: analgesic (probability of activity signature)

INSERT INTO assay_data (compound, observed_value) VALUES
  ('CN[C@@H]1CO[C@H](C)c2ccccc21 (relative stereo) [Example 240, hydrochloride]', '++ (5% ≤ ++ <25%)'),
  ('N[C@H]1COCc2ccc(F)cc21 (single isomer, unassigned) [Example 114]', '++ (5% ≤ ++ <25%)'),
  ('Cc1cccc2c1COCCC2N.Cl (centres unmarked) [Example 37]', '++ (5% ≤ ++ <25%)'),
  ('Cc1ccc(Cl)c2c1[C@H](N)[C@@H](C)OC2.Cl [Example 200]', '++ (5% ≤ ++ <25%)'),
  ('CCN(C)C(=O)Oc1ccc2c(c1)CO[C@@H](C)[C@H]2N(C)C.Cl [Example 285]', '+ (LOQ ≤ + <5%)'),
  ('Cc1ccc2c(c1)[C@H](N)[C@H](C)COC2.Cl (relative stereo) [Example 74]', '++ (5% ≤ ++ <25%)'),
  ('N[C@@H]1COCc2c(Cl)cccc21 [Example 131]', '+ (LOQ ≤ + <5%)'),
  ('C#CCN[C@@H]1COCc2ccccc21.Cl [Example 263]', '+ (LOQ ≤ + <5%)'),
  ('CC[C@H]1OCc2ccccc2[C@@H]1N(C)C.Cl (single isomer, unassigned) [Example 261]', '+ (LOQ ≤ + <5%)'),
  ('Cc1cccc2c1C(N)CCOC2.Cl (centres unmarked) [Example 39]', '++ (5% ≤ ++ <25%)'),
  ('Cc1ccc2c(c1)C(N(C)C)CCOC2.Cl (centres unmarked) [Example 62]', '++ (5% ≤ ++ <25%)'),
  ('Cc1ccc(Cl)c2c1[C@H](N)COC2 (single isomer, unassigned) [Example 175]', '++ (5% ≤ ++ <25%)'),
  ('C[C@H]1OC[C@@H](N)c2cc(F)ccc21.Cl [Example 205]', '+ (LOQ ≤ + <5%)');
